tested on: Staphylococcus aureus; assay: Antibacterial activity against methicillin-resistant Staphylococcus aureus N315 after 24 hrs by micro broth dilution method; format: functional; details: N315, 24 h
Known MIC of a selection of molecules

MOLECULE	MIC (µM)
CC(=O)/C(=C\c1ccc(C#N)cc1)n1c([N+](=O)[O-])cnc1C	1720
COc1cc(/C=C(\C(C)O)n2c([N+](=O)[O-])cnc2C)ccc1O (centres undefined)	1600
Cc1ncc([N+](=O)[O-])n1/C(=C/c1ccc(F)cc1)C(C)O (centres undefined)	1760
CC(=O)/C(=C\c1ccc(C)cc1)n1c([N+](=O)[O-])cnc1C	1790

###

system: Staphylococcus aureus; experiment: Antibacterial activity against methicillin-resistant Staphylococcus aureus N315 after 24 hrs by micro broth dilution method; format: functional; details: N315, 24 h
Known MIC of a selection of compounds
PROPERTY: MIC (µM)

COMPOUND	PROPERTY	UNIT TAG	REPORTED RESULT
Cc1ncc([N+](=O)[O-])n1/C(=C/c1ccc(Cl)cc1)C(C)O (stereo not given)	MIC	µM	1670
Cc1ncc([N+](=O)[O-])n1/C(=C/c1c[nH]c2ccccc12)C(C)O (stereo not given)	MIC	µM	810
CC(=O)/C(=C\c1ccccc1Cl)n1c([N+](=O)[O-])cnc1C	MIC	µM	1640
Cc1ncc([N+](=O)[O-])n1/C(=C/c1ccc(N(C)C)cc1)C(C)O (stereo not given)	MIC	µM	1620
CC(=O)/C(=C\c1ccccc1)n1c([N+](=O)[O-])cnc1C	MIC	µM	1880
CC(=O)/C(=C\c1c[nH]c2ccccc12)n1c([N+](=O)[O-])cnc1C	MIC	µM	830
Cc1ncc([N+](=O)[O-])n1/C(=C/c1ccccc1Cl)C(C)O (stereo not given)	MIC	µM	1670
COc1cc(/C=C(\C(C)=O)n2c([N+](=O)[O-])cnc2C)ccc1O	MIC	µM	1600
CCn1c2ccccc2c2cc(/C=C(\C(C)=O)n3c([N+](=O)[O-])cnc3C)ccc21	MIC	µM	1640
Cc1ncc([N+](=O)[O-])n1CCO	MIC	µM	2970

###

molecular target: Albumin (Homo sapiens); test: Binding affinity to HSA assessed as modified Stern-Volmer quenching constant at pH 7.4 at 300 K by fluorescence assay; type: ADME; settings: isolated protein
Sequence (P02768 whole entry): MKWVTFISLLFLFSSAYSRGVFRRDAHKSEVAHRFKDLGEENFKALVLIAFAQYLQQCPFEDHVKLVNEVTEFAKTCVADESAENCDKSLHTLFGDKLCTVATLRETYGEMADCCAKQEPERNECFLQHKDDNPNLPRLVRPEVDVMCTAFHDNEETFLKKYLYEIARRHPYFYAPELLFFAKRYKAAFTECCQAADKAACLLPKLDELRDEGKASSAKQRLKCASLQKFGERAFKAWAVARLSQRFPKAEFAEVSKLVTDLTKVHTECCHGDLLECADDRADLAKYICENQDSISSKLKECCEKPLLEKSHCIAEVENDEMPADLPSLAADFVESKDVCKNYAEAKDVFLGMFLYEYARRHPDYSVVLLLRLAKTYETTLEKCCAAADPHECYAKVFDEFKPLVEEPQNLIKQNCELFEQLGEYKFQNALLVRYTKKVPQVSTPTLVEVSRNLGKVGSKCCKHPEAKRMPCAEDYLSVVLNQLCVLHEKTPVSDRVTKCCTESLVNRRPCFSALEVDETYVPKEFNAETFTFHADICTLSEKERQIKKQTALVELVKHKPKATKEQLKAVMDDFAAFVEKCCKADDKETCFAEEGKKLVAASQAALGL
PROPERTY: KSV

COMPOUND	REPORTED RESULT
COc1cc(/C=C(\C(C)O)n2c([N+](=O)[O-])cnc2C)ccc1O (stereo unspecified)	61800 M⁻¹

###

system: Staphylococcus aureus; test: Antibacterial activity against methicillin-resistant Staphylococcus aureus N315 after 24 hrs by micro broth dilution method; assay type: functional; conditions: N315, 24 h

COMPOUND	UNIT TAG	MIC
Cc1ncc([N+](=O)[O-])n1/C(=C/c1ccc(C#N)cc1)C(C)O (stereo not given)	µM	1710
CC(=O)/C(=C\c1ccc(Cl)cc1Cl)n1c([N+](=O)[O-])cnc1C	µM	1650
CC(=O)/C(=C\c1ccc(Cl)cc1)n1c([N+](=O)[O-])cnc1C	µM	1640
CC(=O)/C(=C\c1ccc(F)cc1)n1c([N+](=O)[O-])cnc1C	µM	1760
CCn1cc(C(=O)O)c(=O)c2cc(F)c(N3CCNCC3)cc21	µM	1600
CCn1c2ccccc2c2cc(/C=C(\C(C)O)n3c([N+](=O)[O-])cnc3C)ccc21 (stereo not given)	µM	1310
Cc1ncc([N+](=O)[O-])n1/C(=C/c1ccccc1)C(C)O (stereo not given)	µM	1870
Cc1ccc(/C=C(\C(C)O)n2c([N+](=O)[O-])cnc2C)cc1 (stereo not given)	µM	1780
Cc1ncc([N+](=O)[O-])n1/C(=C/c1ccc(Cl)cc1Cl)C(C)O (stereo not given)	µM	1500
CC(=O)/C(=C\c1ccc(N(C)C)cc1)n1c([N+](=O)[O-])cnc1C	µM	1620

###

molecular target: Albumin (Homo sapiens); assay: Binding affinity to HSA assessed as modified Stern-Volmer quenching constant at pH 7.4 at 290 K by fluorescence assay; type: ADME; details: isolated protein
PROPERTY: KSV (M⁻¹)

COMPOUND	MEASURED ON	UNIT TAG	REPORTED RESULT
COc1cc(/C=C(\C(C)O)n2c([N+](=O)[O-])cnc2C)ccc1O (stereo unspecified)	Albumin (Homo sapiens)	M⁻¹	82200

###

molecular target: Albumin (Homo sapiens); test: Binding affinity to HSA assessed as modified Stern-Volmer quenching constant at pH 7.4 at 313 K by fluorescence assay; assay type: ADME; details: isolated protein

MOLECULE	KSV / M⁻¹
COc1cc(/C=C(\C(C)O)n2c([N+](=O)[O-])cnc2C)ccc1O (stereo unspecified)	47400
